- System: PSA
- Protocol notes: Prostate Surface Antigen (PSA) assay, PSA excreted into the media
- Assay type: cell-based, human
- Conditions used: Homo sapiens, 72 h, same plates as eGFP assay, media after 3 days; read-out: IC50 (PSA)
Quantity name: IC50 (nM)

Completed entries (count: 3):
Compound | Unit tag | IC50
FC(F)(F)c1ccc(-c2c[nH]c3ccccc23)cc1 | nM | 390
c1ccc2cc(-c3c[nH]c4cccnc34)ccc2c1 | nM | 97
Fc1ccc2c(-c3ccc4ccccc4n3)c[nH]c2c1 | nM | 48

I: O=[N+]([O-])c1cccc2c(-c3ccc(Br)cc3)c[nH]c12
II: Cc1cccc2c(-c3cccnc3)c[nH]c12
Input line: Returns the identifier with the smallest measured IC50 among I and II . Pick one; state its label.
Output line: I

A: Cn1ccc2cc(-c3ccc4ccccc4c3)ccc21
B: Cc1cccc2c(-c3cnc4ccccc4c3)c[nH]c12
C: Fc1ccc2c(-c3ccc4cccnc4c3)c[nH]c2c1
Input line: Sort entries by IC50 from minimum to maximum value. # answer = labels listed in requested order
Output line: C, B, A

I: c1ccc2nc(-c3c[nH]c4cnccc34)ccc2c1
II: FC(F)(F)c1ccc(-c2c[nH]c3ccccc23)nc1
III: Brc1ccc(-c2c[nH]c3ncccc23)cc1
Input line: Arrange the 3 compounds from largest to smallest IC50. # answer = labels listed in requested order
Output line: I, II, III

P: CC1(C)C(c2c[nH]c3c(O)cccc23)=Nc2ccccc21
Q: Cc1cccc2c(-c3nc(Br)cs3)c[nH]c12
R: c1ccc(-c2ccc(-c3c[nH]c4cccnc34)cc2)cc1
S: Fc1ccc(-c2c[nH]c3ncccc23)cc1
Input line: Arrange the 4 compounds from largest to smallest IC50. # answer = labels listed in requested order
Output line: R, P, S, Q
(R: 1430 nM, P: 940 nM, S: 120 nM, Q: 20 nM)

1: c1ccc(-c2c[nH]c3ncccc23)cc1
2: CC1(C)c2ccc(Br)cc2NC1c1c[nH]c2c(OCc3ccccc3)cccc12 (centres unmarked)
Input line: Endpoint returns the identifier whose IC50 is numerically larger, either 1 or 2 . Pick one; state its label.
Output line: 2

1: Cc1cccc2c(-c3ccc(-c4ccccc4)cc3)c[nH]c12
2: Cc1ccc2[nH]cc(C3Nc4ccccc4C34CCCCC4)c2c1 (centres unmarked)
3: c1ccc2cc(-c3c[nH]c4ncccc34)ccc2c1
4: CC1(C)c2ccccc2NC1c1c[nH]c2ncccc12 (centres unmarked)
Input line: Arrange the 4 compounds from largest to smallest IC50. # answer = labels listed in requested order
Output line: 2, 4, 1, 3

1: CC1(C)C(c2c[nH]c3ncccc23)=Nc2ccccc21
2: c1ccc2c(c1)NC(c1c[nH]c3ccccc13)C21CCCCC1 (centres unmarked)
Input line: Endpoint returns the identifier whose IC50 is numerically larger, either 1 or 2 . Pick one; state its label.
Output line: 2

A: Oc1cccc2c(C3Nc4ccccc4C34CCCCC4)c[nH]c12 (centres unmarked)
B: c1ccc2ncc(-c3n[nH]c4ccccc34)cc2c1
Input line: Returns the identifier with the smallest measured IC50 among A and B . Pick one; state its label.
Output line: A
(A: 1140 nM, B: 6610 nM)

----------
- Target entity: androgen receptor (AR) (Homo sapiens, UniProt P10275, T878A)
- Construct: stably transfected eGFP-expressing LNCaP human prostate cancer cells (LN-ARR2PB-eGFP) containing an androgen responsive probasin-derived promoter; endogenous in cells; host or cells: LNCaP (LN-ARR2PB-eGFP)
- Sequence (P10275 whole entry T878A): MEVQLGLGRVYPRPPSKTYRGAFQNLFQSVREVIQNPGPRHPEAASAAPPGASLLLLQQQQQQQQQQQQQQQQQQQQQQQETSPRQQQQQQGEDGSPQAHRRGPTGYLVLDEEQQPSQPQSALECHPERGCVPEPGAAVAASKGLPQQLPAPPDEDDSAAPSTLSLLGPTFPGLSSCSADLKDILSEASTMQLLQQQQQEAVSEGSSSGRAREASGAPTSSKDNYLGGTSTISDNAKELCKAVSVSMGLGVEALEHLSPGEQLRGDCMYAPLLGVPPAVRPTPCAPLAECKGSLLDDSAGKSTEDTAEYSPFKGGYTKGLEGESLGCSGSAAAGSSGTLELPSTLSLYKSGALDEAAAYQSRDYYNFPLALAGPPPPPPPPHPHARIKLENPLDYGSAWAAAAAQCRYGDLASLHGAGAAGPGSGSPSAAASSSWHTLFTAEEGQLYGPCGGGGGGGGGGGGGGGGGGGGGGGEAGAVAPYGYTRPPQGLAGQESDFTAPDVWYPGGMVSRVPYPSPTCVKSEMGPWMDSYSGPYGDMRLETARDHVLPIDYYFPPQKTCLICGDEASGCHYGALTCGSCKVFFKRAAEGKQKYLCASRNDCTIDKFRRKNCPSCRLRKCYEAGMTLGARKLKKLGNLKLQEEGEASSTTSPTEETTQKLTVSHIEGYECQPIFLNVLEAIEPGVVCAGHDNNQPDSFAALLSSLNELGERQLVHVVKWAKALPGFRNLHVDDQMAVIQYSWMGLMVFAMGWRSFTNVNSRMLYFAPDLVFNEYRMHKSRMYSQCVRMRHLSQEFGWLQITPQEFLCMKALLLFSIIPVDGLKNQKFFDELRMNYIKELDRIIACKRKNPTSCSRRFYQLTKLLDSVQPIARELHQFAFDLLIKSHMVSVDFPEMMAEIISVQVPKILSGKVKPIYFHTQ
- Protocol notes: eGFP cellular AR transcription assay
- Assay type: cell-based
- Conditions used: LN-ARR2PB-eGFP LNCaP cells, 0.1 nM R1881, 3 days, 0-100 μM compound; read-out: IC50 (eGFP)
Quantity name: IC50 (nM)

1: c1ccc2nc(-c3c[nH]c4cnccc34)ccc2c1
2: O=[N+]([O-])c1cccc2c(-c3ccc(Br)cc3)c[nH]c12
3: CC1(C)c2ccccc2NC1c1c[nH]c2ncccc12 (stereo not shown) [13 560]
Input line: Rank by IC50 (largest to smallest). # answer = labels listed in requested order
Output line: 3, 1, 2
(3: 2300 nM, 1: 1100 nM, 2: 83 nM)

From: patent US10633338B2
